# Tested on: HS 578T breast
# measurement_description: NCI-60 one-dose screen, 48 h (100 = growth as untreated, 0 = no growth, -100 = all killed)
# measurement_context: 10 µM
# Method: Growth inhibition of the HS 578T human tumor cell line is measured as a screen for anti-cancer activity. Cells are grown in 96 well plates and exposed to the test compound for 48 hours. Compounds are tested at a single concentration, which is 10^-5 M for most compounds. The reported endpoint is percent growth (GI% or GIPRCNT), where numbers from 0 - 100% represent growth inhibition, and numbers from -100% - 0 represent cell death. For example, a value of 40 represents 60% growth inhibition. […]
This is part of a sample that, as a whole, favours compounds with a hit. Of some 83,000 tested, about 20% had one in any assay.
recorded_metric: growth (%)
Provide the reading as a plain figure in %.

// returns reported growth for input `CCCCCCN1CCN(Cc2ccc(N(CC)CC)cc2)C(=O)C1=O` 20.6

Try the compound CCOC(=O)C1CCc2c(ccc3ccccc23)N1CCC#N (centres undefined) 99.9

Try this compound too: `O=C(/C(=C/c1ccccc1)CN1CCCCC1)c1ccccc1` 47.5

Please give the result for COc1ccc(NC2=NC(C)(CO)CS2)cc1 (centres undefined) too. 99.3

Next up: `COc1ccc(-c2nc(-c3nc4cc(Cl)c(Cl)cc4[nH]3)c3ccccn23)cc1` 12.9

New cases:
Return reported growth; argument: `O=C1/C(=C/c2ccc(Cl)cc2)SC(=Nc2ccc(Cl)cc2)N1Cc1nc2ccccc2[nH]1` 114

`CN(C)c1ccc(/C=C/C=N/NC(=O)c2cc(O)c(O)c(O)c2)cc1` ? 100

Request: CC(=O)N1N=C(c2ccc(Cl)cc2)CC1c1sc(Cl)nc1Cl (centres undefined) 98.2

Entry COc1ccc2c(c1)N(CCO)C1=C(C(=O)OC1)C2c1ccccc1 (centres undefined) please -5.25

Also `Cc1cc2ccccc2nc1-c1ccccc1F` ? 106

Also `O=C1/C(=C/c2ccc([N+](=O)[O-])s2)Oc2ccccc21` , if possible. 25.7

Next record, please: `CC/C(=C(/c1ccc(OCCN(C)C)cc1)c1ccc(OC(=O)CCCCC(=O)c2c(C)[nH]c(/C=C3\N=C(c4ccc[nH]4)C=C3OC)c2C)cc1)c1ccccc1` 33.8

Also, `COc1cc(Nc2ccnc(NCCCNc3ccnc4cc(Cl)ccc34)n2)cc(OC)c1` please. -53.1

What about this compound? `CCN1CCN(c2nc3ccccc3c3c(=O)c4ccccc4sc23)CC1` 52.6

###

# System: A498 renal
# measurement_description: NCI-60 one-dose screen, 48 h
# measurement_context: 10 µM
Compounds without any hit were thinned out: in the full panel of roughly 83,000, 20% have a hit. Activity calls are given as the source filed them. The calls were made as follows: active = growth percent below 10; inactive = the rest.
Hi there, use one of these labels in your reply, thanks! 1 (active), 0 (inactive)

Some solved cases for reference:
Query: recorded result category for `C[N+](C)(C)c1ncnc2nc[nH]c12` in this test 0

Queued: `Cc1ccc(N=Nc2c(N)nc(N)[nH]c2=O)cc1C` 0

// repeat for `COc1ccccc1/C=C/C(=O)c1ccccc1` and report 0

Here is the next compound: CCN(CC)CCCC(C)Nc1ccc2ccc(Cl)cc2n1 (stereo unspecified) 0

Continuing:
Record request — test call for `CN(C)C(=S)N/N=C\C=N/NC(=S)N(C)C` 0

Next compound: `CCCCCCCCCCCC[n+]1ccc(C(N)=O)cc1` 0
